tested on: SLK; details: concentration: 1 μM, replicates: in singlicate; n = 1;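 also: KINOMEscan kinase panel screen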
For each record, write down the corresponding %Inh.
Answers are plain numbers, in %.

Value of %Inh reported for the compound "CCNC(=O)/C=C/c1n[nH]c2cc(Sc3ccccc3C(=O)NC)ccc12" is 23

Value of %Inh reported for the compound Cc1cccc(Nc2nc(N[C@H]3CCCC[C@H]3N)ncc2C(N)=O)c1.Cl [GSK986310] is 72

Value of %Inh reported for the compound COc1cccc2c(-c3ccncc3)c(-c3ccc(F)cc3)nn12 [GW468513] is 23

Value of %Inh reported for the compound c1ccc(Oc2ccc(Nc3ccnc4cc(-c5ccc(CN6CCCCC6)o5)ccc34)cc2)nc1 [GW567143] is 36

Value of %Inh reported for the compound Cl.Cl.NC(CNC(=O)c1cc(Br)c(-c2ccnc3[nH]ccc23)s1)c1ccccc1 (stereo not shown) [GSK1322949] is 20

Quick one: give me %Inh for each item below, same order please.
1. O=C(Nc1n[nH]c2nc(-c3cccc(O)c3)ccc12)C1CC1 [SB-711805]
2. COc1cccc(NC(=O)NCCNc2ccnc(Nc3ccc(F)cc3)n2)c1 [GSK1379879]
3. CN(c1ccc(F)c(NC(=O)c2cccc(OC(C)(C)C#N)c2Cl)c1)c1ccc2nc(NC(=O)C3CC3)sc2n1
4. CCOc1nccc(-c2c(-c3ccc(F)cc3)ncn2C2CCNCC2)n1 [SB-249175]
5. CN(C)CCOc1ccc(-c2cc(-c3ccc(Cl)c(O)c3)c(-c3ccncc3)[nH]2)cc1.Cl.Cl [SB-684387]
6. Fc1cc(Cl)ccc1Nc1ccnc2cc(-c3ccc(CN4CCOCC4)o3)ccc12 [GW560109]

1: 48; 2: 7; 3: 14; 4: 71; 5: 98; 6: 32
